# apparent KD of K4 kissing-loop reporter per entry
Test system: K4 kissing-loop RNA reporter;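 also: bound reporter read as fluorescence of individual clusters on recovered sequencing chips by microscopy, with normalized cluster intensities fitted with a binding model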
assay: apparent KD of K4 kissing-loop reporter; higher = weaker reporter binding
conditions-used: Eterna round: R107; input ligand: none
Express it in nM; write the number only.

>>> recorded_number("UGGAGUUGACGAAAAGUCAACUCCUGAGAUACCAGUGACGAAAGUCACCCUUGGCAGCUCACUGCCAGUGAUGUUGGAACUAAAG [#02 K4 Theophylline A Same State]")
256
>>> recorded_number("GCGUAGAUUAGCAGUGAUGUUGCUACGGAAGGAGCGCGUGAAAACGCAGGUAGGUCGCCGACAAAAUUAAUUUUAAUGUCUGCGC [KL-SSArg-A6]")
596
>>> recorded_number("AAAUGUUUGUAUUUGAACAAUUUCUUUAGGGAGGAUAUUGGUAAUACAAGAAGGCCCUGAUGGGAGUGAUGUUCCCAUAACGCGG [Exclusion FMN A GF15]")
74

Record GCAUCCAUGGCAGGAUAUAGGUUCGUGGAGUGAUGUUCCAUAGCCCGAGUGAUGUUCGUUAUCCACCUAGAAGGGCCAUGGAUGC [whbob_Ex_FMNB__2th212] . Reported apparent KD of K4 kissing-loop reporter: 246

Record UAAGAGUCUCUGCAAUUAGCAGAGACUCAACGAGGACCGGUACGGCCGCCACUCGGGUCCUAGAGUGAUGUUCUAAUAAUAUAAU [AK1.1 SS Tryptophan A] . Reported apparent KD of K4 kissing-loop reporter: 548

Record GGUAGCAUGGCGGCCGCCACUGAGGCCCUAUACGAGUCCUAAACAACCUAGUGAUGUUAGGAGUCCAGGACCGGGCCAUGCUACC . Reported apparent KD of K4 kissing-loop reporter: 254

###

System: MS2 coat protein
assay: apparent KD of MS2 coat protein; designed switch direction (-1 OFF switch, 1 ON switch): 1; higher = weaker reporter binding
conditions-used: Eterna round: R95; input ligand: microRNA oligo, concentration not stated
Label t when apparent KD of MS2 coat protein is at or above 100 nM; otherwise label f.

Check out these entries, answers already filled in.
>>> assigned_label("AUAAAACAUGAGGAUCACCCAUGUCAACAAAGUCUAGGAUAUGGGCAAAUAAAAUAAGAACCAGAAGGCGAAUAAU [salish99_ss1_r3_051] (puzzle: Same State 1)")
"t"
>>> assigned_label("GGAGCCGGCACUGAGGAUAUUCAUAUUAAAACAUGAGGAUCACCCAUGUAGGCCAGAAGGCCUUGGGAGAAGGCGGAUCGGCUCG [Xeonanis - 14] (puzzle: Same State 2)")
"t"
>>> assigned_label("UGUUAACAUGAGGAUCACCCAUGUCAAAUGAAUCGAGGAUAUGGGAAGUAAUAAGAUAAACUAGAAGGCGAAGUUG [Altered State 1-1 - Jieux - Same State 1] (puzzle: Same State 1)")
"t"

Attention now turns to another entry.
// query For this sequence, is measured apparent KD of MS2 coat protein 100 nM or higher? UUUAGUUGCGCGCAGGAUAUGUAUUAAUAUACAUGAGGAUCACCCAUGUGAGACCAAAUAGGUCUACAGAAGGGCGAAUCGCGAC [Laonerce - 29] (puzzle: Same State 2)
// result t

###

System: MS2 coat protein
assay: apparent KD of MS2 coat protein; designed switch direction (-1 OFF switch, 1 ON switch): -1; higher = weaker reporter binding
conditions-used: Eterna round: R95; input ligand: microRNA oligo, concentration not stated
Label scheme, based on apparent KD of MS2 coat protein: low value = under 20 nM, medium value = from 20 nM up to 60 nM, high value = 60 nM and over

// query For this sequence, which bin applies? UAAUACUCAGGAUAUAUGAUGUGAAACAUGAGGAUCACCCAUGUAAUAUUAUGGAUGUAAAUAGAAGGGAGAUUAU [Mat - Exclusion 5 - JL mod - D20] (puzzle: Exclusion 5)
// result medium value

// query For this sequence, which bin applies? CUUCGUAUAGAGGAUAUAGGAUACCUCGGUGUCCUAGAAGGCUGUACAUGAGGAUCACCCAUGUACUUCAGAUC [Exclusion 6 - B - 14:d] (puzzle: Exclusion 6)
// result low value

###

Test system: MS2 coat protein
assay: apparent KD of MS2 coat protein; higher = weaker reporter binding
conditions-used: Eterna round: R107; input ligand: arginine 13.2 mM
# apparent KD of MS2 coat protein per entry

Example entries begin here.
>>> result("AAACGCCACGGAAGGAGCGACAUGAGGAUCACCCAUGUAGAUUUGGCGGAUGCACCCUCCUGUCAGGUAGGUCGCCGUGCGCUAA [XArg-B24]")
"0.0518 µM"
>>> result("ACAUGAGGAUGGGAUACCAGAUACAUGAGGAUCACCCAUACAUGAGGAUCACCCAUGUCCGUCCCUUGGCAGCCCAACAUGAGGA [Exclusion Theophylline B]")
"0.0774 µM"
>>> result("AGAGCAUUGACGGCCGCCACUCAUGUCACAUGAGGAUCACCCAUGUGAUGGGUGAUCGCCCGGUUGAGGACCGGGUCAAUGCUCA [Omei Tryp SS B v2]")
"0.0429 µM"
>>> result("GGUGGCGUGACGGAUACCAGCCACCACCGCAAGGCCACAUGAGGAUCACCCAUGUUGGGUGGCCCUUGGCAGCUGUCGUGCGGCG [#1 Same State - Theophylline B Attempt #20 (HarryS)]")
"0.451 µM"
>>> result("AGCGAUAUGCAUGAUACCAGCUACAUGAGGAUCACCCAUGUACGUCAGUAAUGACUGUGUAGCCCUUGGCAGCAUAGAGCAUGUA [Exclusion - Theophylline B (Freestyle 13)]")
"0.0217 µM"
>>> result("CUCAUCCACGCGGCCGCCACUAUAUUGUGGUGUGAAUGUGACGUAUUACAAGAGGAUCACCCUUGUAGGACCGGGCGUGGAUGAG [Tryp B Ex Mod1]")
"0.0285 µM"
>>> result("AUCCUCAAGAAUGAUACCAGACCAAACAUGAGGAUCACCCAUGUAUCAGGCAAUUGUUACGUCCCUUGGCAGCAUGUAAGCCGAC [Theo B SS t2]")
"0.0355 µM"
>>> result("CGCCACAUGAGGAUCACCCAUGUCUUGGCGCGAGGACCGGUACGGCCGCCACUCGCGUUUCAGUGAGCGCAUGCGUCCUUGGUAU [Exclusion Tryp A GF10]")
"0.0168 µM"

Record CGAAAGCACAUGGGUUGCUUUCGACUGGAAGGAGCGAGCGAAAGCUCAGGUAGGUCGCCAGAAACAUGAGGAUCACCCAUGUAAU [(A)''-(M)'-(A)'(Arg1)-(Arg2)-(M1)-(M2)_Design10] . Reported apparent KD of MS2 coat protein: 0.0216 µM

Record CACGGAAGAGUGGAUCACCCUCUUAAUAAACGAGGACCGGUACGGCCGCCACUCGAAAACCGUGACCUGUACGAAAAGUGCAGGA . Reported apparent KD of MS2 coat protein: 0.0313 µM

Record AGACAUGAGGAUCACCCAUGUAGUACGGAUACCAGAUCCAGAUGCGUCCCUUGGCAGCUGUGGUACAGCGUUACAUCGCUCGUAG [Exclusion - Theophylline A (Freestyle 23)] . Reported apparent KD of MS2 coat protein: 0.016 µM

###

System: MS2 coat protein
assay: apparent KD of MS2 coat protein; designed switch direction (-1 OFF switch, 1 ON switch): -1; higher = weaker reporter binding
conditions-used: input ligand: FMN 200 uM
property-name: apparent KD of MS2 coat protein (µM)
Express it in µM; write the number only.

Record AAUAAGCGAGGAUAUACACCCGGUAACCGGGAACGGGCGAGACAUGAGGAUCACCCAUGUAGAAGGCGCGUCAA [Ralaente] (Eterna round: R97, puzzle: Exclusion 2) . Reported apparent KD of MS2 coat protein: 0.182

Record UAUCGCAAGCGAAGAUCCCACAUGAGGAUCACCCAUGUGCUCGUCUUAUAAGGUACUGUGACGAAAGUCACGGUACC [Sensor 3, v1 - 91 v15] (Eterna round: R97, puzzle: Sensor, turn-off variant 1) . Reported apparent KD of MS2 coat protein: 0.0316

Record ACACUGCGAGGAUAUACAUGAGGAUCACCCAUGUUAAGGAAGUCAAGGUUAAUUUAAGGUAGAAGGCGCUUAUU [JR_Ex3_Sub013] (Eterna round: R97, puzzle: Exclusion 3) . Reported apparent KD of MS2 coat protein: 0.0462

Record GUACUACAUGAGGAUCACCCAUGUCAGGAUAUUUGAAUUUCAUCAAAAGAUGAAAUUCGGAGAAGGGACAGUAC [Omei Ex1 A7] (Eterna round: R97, puzzle: Exclusion 1) . Reported apparent KD of MS2 coat protein: 0.0311

Record UAUUAGCAAGUAAGAUCCCACAUGAGGAUCACCCAUGUGCUCGUCAUAUCACGUACUGUGAGGAAACUCACGGUACG [Sensor-V1 #85] (Eterna round: R97, puzzle: Sensor, turn-off variant 1) . Reported apparent KD of MS2 coat protein: 0.114

Record AACAAUACUUACAUAAUAAGGCUUUUCAGGUCGGGUACCACAUGAGGAUCACCCAUGUAGCAGCCUAGGGAAUGAUA [JR_Sensorv2_tov2_Sub1233] (Eterna round: R96, puzzle: Sensor v2, turn-off variant 2) . Reported apparent KD of MS2 coat protein: 0.0492

Record GUAACAACUAGAGGAUAUCAGCACGAUUAGUGCUGAGAAGGCUAGAGUUACAUGAGGAUCACCCAUGUCUAGAGAUCAUUAAUU [ENG1/13-A1] (Eterna round: R96, puzzle: Exclusion NG 1) . Reported apparent KD of MS2 coat protein: 0.155

Record GUCUCACAUGAGGAUCACCCAUGUGAGGAUAUGGUUUCGCUGGCCGUAGCCAGUGGAACCAGAAGGCGCAUGAU [Mat - Exclusion 1 - JL Mod - D3] (Eterna round: R97, puzzle: Exclusion 1) . Reported apparent KD of MS2 coat protein: 0.0247

Record UUGACGGCAGGAUAUACAUGAGGAUCACCCAUGUAAAUUUUUCGUUUAACUUGAAUGUGUAGAAGGGCCCAACC [Ex3 #78] (Eterna round: R97, puzzle: Exclusion 3) . Reported apparent KD of MS2 coat protein: 0.0166

Record GGUCCGUCAGUGAGGAUAUUGAGGAGGAGGAGGGACAAGAAGGCACAUGAGGAUCACCCAUGUAGGGACGGACG [Alacar 1st] (Eterna round: R97, puzzle: Brourd's mod of Exclusion 4) . Reported apparent KD of MS2 coat protein: 0.0464

Data origin: the supplement of paper PMC9170038
